- Test system: 2008/C13*5.25
- Assay remarks: Cisplatin resistance (IC-50) of resistant sub-line versus parental line
- Format: cell-based, human
- Condition info: resistant cells; the concentration used in the colony assay
Endpoint: IC50 (µM)
Use µM as the unit, but write only the number.

# lookup: IC50 of N.N.[Cl][Pt][Cl] [cisplatin, Dichlorodiaminocisplatin] 25
